- Test system: Plasmodium falciparum
- assay procedure: GSK_TCMDC: Inhibition of Plasmodium falciparum Dd2 in whole red blood cells, using parasite LDH activity as an index of growth. Test compounds present at 2uM
- Assay type: functional
Below, each entry is listed with its recorded Inhibition.
Number only, in %; omit the unit.

molecule | parameter | meas value
CCCCNCc1ccc(-c2nc(CN(CCCn3ccnc3)C(=O)Nc3ccc(CC)cc3)cs2)cc1.O=C(O)C(F)(F)F | Inhibition | 56
CCN(CC)CCN(Cc1ccc(-c2ccc(C(F)(F)F)s2)cc1)C(=O)Cn1c(CCc2cccc(F)c2F)nc(=O)c2ccccc21.O=C(O)C(O)C(O)C(=O)O | Inhibition | 31
O=C(Nc1cccc(CN2CCCN(CC3CC3)CC2)c1)c1ccc(-c2ccccc2)cc1.O=C(O)C(F)(F)F | Inhibition | 5
COc1ccc(/C=C/C(=O)Nc2ccc(-c3ccncc3)cc2)cc1CCCN(C)C.O=C(O)/C=C\C(=O)O | Inhibition | 86

Field Inhibition (entry CNC(=O)c1ccc2nc(C3CC3)n(CC3CCN(S(=O)(=O)c4cccc(Cl)c4)CC3)c2c1.O=C(O)C(F)(F)F ) reads 100

Field Inhibition (entry Cc1ccc(Nc2nccc(NCC(O)c3cccc(C(F)(F)F)c3)n2)cc1 (stereo unspecified) ) reads 74

Field Inhibition (entry COc1ccc2nccc([C@@H](O)CN3CCC(NC(=O)C(c4cc5ccccc5o4)N4CCN(Cc5ccccc5)CC4)CC3)c2c1 (stereo partly specified) ) reads 75

----------
- Tested on: Plasmodium falciparum
- assay procedure: GSK_TCMDC: Inhibition of Plasmodium falciparum 3D7 in whole red blood cells, using parasite LDH activity as an index of growth. Test compounds present at 2uM
- Assay type: functional
Below, each entry is listed with its recorded Inhibition.
Number only, in %; omit the unit.

molecule | experimental system | Inhibition [%]
Cc1cc(C(F)(F)F)n2nc(C3CCN(Cc4cc(C)c(O)c(C)c4)C3)cc2n1.O=C(O)CC(O)(CC(=O)O)C(=O)O (centres undefined) | Plasmodium falciparum | 98

Field Inhibition (entry COc1cccc(CNCC(C)(C)c2nc(-c3ccc(Cl)c(O)c3)c(-c3ccncc3)[nH]2)c1.Cl ) reads 100

Field Inhibition (entry C/C=C/COc1ccc2ccccc2c1CNCCCCCCCCNCc1c(OC/C=C/C)ccc2ccccc12.CS(=O)(=O)O.O ) reads 87

Field Inhibition (entry CN1CCN(c2ccc(Nc3c(C(N)=O)cnc4cc(-c5ccoc5)ccc34)cc2)CC1.Cl ) reads 100

----------
- Tested on: HepG2
- assay procedure: GSK_TCMDC: Percent inhibition of human HepG2 cell line. Test compounds present at 10uM.
- Assay type: functional
parameter: Inhibition (%)
Number only, in %; omit the unit.

Here's what some known entries look like.
smiles text | experimental system | parameter | meas value
COc1ccc2nccc([C@@H](O)CN3CCC(NC(=O)[C@@H]4Cc5ccccc5CN4C(=O)OC(C)(C)C)CC3)c2c1 | HepG2 | Inhibition | 15
O=C(Nc1cccc(-c2cccc(-c3nc4cc(C(F)(F)F)ccc4[nH]3)c2)c1)c1ccncc1 | HepG2 | Inhibition | 52
CC(O)C(=O)O.COc1cc(Cc2cnc(N)nc2N)c2c(c1OC)OC(C)(C)C=C2 | HepG2 | Inhibition | 7

Field Inhibition (entry Cc1nn(-c2ccc(Cl)cc2)c2[nH]c(CN3CCN(c4cccc(Cl)c4)CC3)cc(=O)c12 ) reads 0

Field Inhibition (entry Cl.N#CCc1ccc(Nc2nccc(Nc3ccc(Oc4ccccc4)cc3)n2)cc1 ) reads 0
